Reference source: the supplement of paper PMC6757056

B1: library; a variant is named by its letters at N, in order (parent)
chain: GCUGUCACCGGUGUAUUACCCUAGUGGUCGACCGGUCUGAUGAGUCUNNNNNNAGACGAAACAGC

Variants of: B1
Assay: normalized RNA/DNA level with ligand (relative to sTRSVctl = 100) (log10 (% of sTRSVctl)); ligand: hypoxanthine (xanthine aptamer); higher = less ribozyme self-cleavage, higher mRNA level
Settings: ligand concentration (+) RNA-Seq: 5 mM, HEK293T, reporter: mCherry (pCS4076), ligand present: yes
For each of the variants below, state its normalized RNA/DNA level with ligand (log10).
One number for each entry.

Use the examples below as a reference point.
Task: Returns the measured normalized RNA/DNA level with ligand (log10) for the input variant. Input: AAAGAU
Output: 1.89

Task: Consider next the variant GAGAAG in the same way.
Output: 1.55

Task: Let us now turn to UGCGGU
Output: 1.9

Continuing:
Task: Could you share which normalized RNA/DNA level with ligand (log10) value was measured for UUGAGA ?
Output: 1.96
